# EXPERIMENTAL_DETAILS: small-molecule microarray binders of probe aWnt5a, primary screen, biochemical, biotinylated probe, 635/667 nm fluorescence (AID 1113);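 further: score merges 667 nm fluorescence intensity with signal-to-noise per printed feature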
# CONDITION_CONTEXT: higher = more signal
Class key for composite z-score values: low end: < -0.1; middle: ≥ -0.1 and < 0.04; high end: ≥ 0.04

COMPOUND: COCCOC(=O)N1C(=O)[C@@]2(c3cc(C#CCNC(N)=O)ccc31)[C@H](C(N)=O)[C@H]1C(=O)O[C@H](c3ccccc3)[C@H](c3ccccc3)N1[C@@H]2c1ccc(O)cc1
LABEL_VALUE: middle

Would you kindly look at the next entry?
Please indicate the class for O=C1NC(=O)C2C1C=CC(C(O)C(c1ccccc1)c1ccccc1)N2Nc1ccccn1 (centres undefined) based on its composite z-score.
high end

###

# ASSAY_TARGET: E3 ubiquitin-protein ligase XIAP (Homo sapiens) (UniProt P98170)
# Sequence (P98170 whole entry, looked up): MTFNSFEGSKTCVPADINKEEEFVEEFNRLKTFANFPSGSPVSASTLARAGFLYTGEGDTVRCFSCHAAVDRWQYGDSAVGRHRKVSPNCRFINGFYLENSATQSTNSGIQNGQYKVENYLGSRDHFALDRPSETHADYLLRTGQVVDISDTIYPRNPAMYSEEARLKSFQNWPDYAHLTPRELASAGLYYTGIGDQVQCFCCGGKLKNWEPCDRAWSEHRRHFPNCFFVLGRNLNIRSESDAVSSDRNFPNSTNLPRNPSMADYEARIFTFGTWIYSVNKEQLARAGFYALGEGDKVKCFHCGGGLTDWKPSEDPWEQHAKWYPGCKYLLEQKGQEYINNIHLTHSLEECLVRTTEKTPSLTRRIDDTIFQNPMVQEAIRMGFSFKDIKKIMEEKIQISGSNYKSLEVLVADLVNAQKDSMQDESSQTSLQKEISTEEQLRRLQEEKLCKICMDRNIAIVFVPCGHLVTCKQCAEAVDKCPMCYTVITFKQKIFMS
# EXPERIMENTAL_DETAILS: XIAP binders, primary screen, biophysical, small-molecule microarray, fluorescence 635 nm (AID 1181);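 further: score merges 667 nm emission and signal to noise over triplicate slides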
# CONDITION_CONTEXT: small-molecule microarray binding, higher = more signal
READOUT_TYPE: composite z-score
Give your answer as a number; write no unit.

Worked set:
COMPOUND: COc1c(C)cc(-c2nc(-c3ccccc3)c3c(c2C)CO[Si]3(C(C)C)C(C)C)cc1C
ASSAY_TARGET: E3 ubiquitin-protein ligase XIAP (Homo sapiens) (UniProt P98170)
READOUT_TYPE: composite z-score
VALUE_REPORTED: 0.53
//
COMPOUND: [N-]=[N+]=NCc1ccccc1[C@H]1OC(c2ccc(OCCCO)cc2)=N[C@@]1(Cc1ccccc1N=[N+]=[N-])C(=O)N1CCOCC1
ASSAY_TARGET: E3 ubiquitin-protein ligase XIAP (Homo sapiens) (UniProt P98170)
READOUT_TYPE: composite z-score
VALUE_REPORTED: 0.122
//
COMPOUND: Cc1ccc(S(=O)(=O)N2[C@@H](c3ccccc3)C(C(=O)O)=CC[C@H]2c2ccc(F)cc2)cc1
ASSAY_TARGET: E3 ubiquitin-protein ligase XIAP (Homo sapiens) (UniProt P98170)
READOUT_TYPE: composite z-score
VALUE_REPORTED: 0.142
//
COMPOUND: CC(C)C[C@@H]1NC(=O)[C@H]2C[C@@H](C(=O)O)[C@@H](c3cccc(OCCO)c3)N2C1=O
ASSAY_TARGET: E3 ubiquitin-protein ligase XIAP (Homo sapiens) (UniProt P98170)
READOUT_TYPE: composite z-score
VALUE_REPORTED: 0.0845
//
COMPOUND: C[C@]12C(=O)N(CCO)[C@@H]3C(=O)N(c4ccc(Cl)cc4)CC=CC31O[C@@H]1/C=C\CCCOC(=O)C12 (stereo partly drawn)
ASSAY_TARGET: E3 ubiquitin-protein ligase XIAP (Homo sapiens) (UniProt P98170)
READOUT_TYPE: composite z-score
VALUE_REPORTED: -0.0746

Looking for the measured composite z-score of COCCCNC(=O)[C@]1(Cc2ccccc2N=[N+]=[N-])N=C(c2ccc(OCCCO)cc2)O[C@@H]1c1ccccc1 , can you help?
0.267

Next up: COC(=O)C1=CC(CCCO)=CC(c2ccc(CN3CCCC3)cc2)N(C)C=C1C(=O)OC (stereo not drawn)
-0.153

###

# EXPERIMENTAL_DETAILS: splicing luciferase reporter signal modulators, primary screen, spliceosome inhibition project, cell-based, HEK293, splice +/- reporter (AID 1101);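 further: HEK293 cells carrying a splicing-competent luciferase reporter gene; test concentration not given here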
# CONDITION_CONTEXT: luminescence, 24 h, higher = more signal, called active from +8 up or from −8 down
READOUT_TYPE: z-score
Give your answer as a number; write no unit.

Worked set:
MOLECULE: COC(=O)C[C@H]1O[C@]2(C(=O)N(C)c3ccccc32)[C@@H](C)[C@@H]1[Si](C)(C)c1ccccc1
z-score: -1.25
//
MOLECULE: CC(C)(C)OC(=O)CC[C@]1(C(=O)N2CCOCC2)COC(c2ccc(OCCCO)cc2)=N1
z-score: -0.713

Looking for the measured z-score of C=CC[C@]1(C(N)=O)N=C(c2ccc(OCCCO)cc2)O[C@H]1c1ccccc1N=[N+]=[N-] , can you help?
-0.401

Next up: O=C1O[C@H](c2ccccc2)[C@H](c2ccccc2)N2[C@H]1[C@@H](C(=O)O)[C@]1(C(=O)Nc3ccccc31)[C@H]2c1ccc(OCCO)cc1
-0.749

Next up: CC(C)[Si](C#Cc1ccccc1)(O[C@H](c1ccccc1)c1cn(Cc2ccccc2)nn1)C(C)C
-1.97

Next up: COCCOC(=O)N1C(=O)[C@@]2(c3cc(C#CCNC(N)=O)ccc31)[C@H](c1ccc(O)cc1)N1[C@H](c3ccccc3)[C@H](c3ccccc3)OC(=O)[C@H]1[C@@H]2C(=O)N1CCc2cc(OC)c(OC)cc2C1
-1.41

Next up: COC(=O)C(CC#Cc1ccc2c(c1)[C@]1(C(=O)N2)[C@H](C(=O)N2CCN(c3ncccn3)CC2)[C@H]2C(=O)O[C@H](c3ccccc3)[C@H](c3ccccc3)N2[C@@H]1c1ccc(O)cc1)C(=O)OC
-0.0485

Next up: COCCOC(=O)N1C(=O)[C@@]2(c3ccccc31)[C@H](C(=O)Nc1nc3ccccc3s1)[C@H]1C(=O)O[C@H](c3ccccc3)[C@H](c3ccccc3)N1[C@@H]2c1ccccc1OCCO
-0.794

Next up: CC(C)(C)OC(=O)CC[C@]1(C(N)=O)N=C(c2ccc(OCCCO)cc2)O[C@H]1c1ccccc1N=[N+]=[N-]
-1.24

Next up: CCCCC(=C=CC[C@@H](O)c1ccc(OCCO)cc1)CCO
-0.755

###

# EXPERIMENTAL_DETAILS: small-molecule microarray binders of probe aWnt5a, primary screen, biochemical, biotinylated probe, 635/667 nm fluorescence (AID 1113);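 further: score merges 667 nm fluorescence intensity with signal-to-noise per printed feature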
# CONDITION_CONTEXT: higher = more signal
Please mark satisfied if the recorded composite z-score is equal to or greater than -0.07, and not satisfied if it falls below.

Check out these entries, answers already filled in.
MOLECULE: CCCC1(C(=O)OC)C=C2C(=C(C(C)C)C(=O)C2C)CN1 (stereo not drawn)
LABEL_VALUE: satisfied
--
MOLECULE: COC(=O)[C@@]1(Cc2ccc(F)cc2)[C@H]2c3cc(C(=O)N(C)C)n(Cc4ccsc4Br)c3C[C@H]2CN1C(=O)c1ccccc1
LABEL_VALUE: satisfied
--
MOLECULE: O=C/C=C/c1ccc(-c2ccccc2)cc1
LABEL_VALUE: not satisfied
--
MOLECULE: C=CCNC(=O)[C@H]1[C@@H]2C(=O)O[C@@H](c3ccccc3)[C@@H](c3ccccc3)N2[C@@H](c2ccc(O)cc2)[C@]12C(=O)N(C(=O)OCCOC)c1ccc(C#Cc3ccc(OC)cc3)cc12
LABEL_VALUE: satisfied
--
MOLECULE: COC(=O)[C@@]1(Cc2ccccc2)[C@H]2c3cc(C(=O)N(C)C)n(Cc4nc5ccccc5[nH]4)c3C[C@H]2CN1C(=O)c1ccccc1
LABEL_VALUE: satisfied

Check the entry COC(=O)[C@@]1(Cc2ccccc2)[C@H]2c3cc(C(=O)N(C)C)n(CCF)c3C[C@H]2CN1C(=O)c1ccccc1 : does composite z-score equal or exceed -0.07?
satisfied

Next up: CC[C@H]1C2=C3C(CC[C@H]4C(OCc5ccc(F)cc5C(F)(F)F)OC[C@](C)([C@@H]34)N(C(=O)OC(C)(C)C)C2)C(COC(C)=O)C1COC(C)=O (stereo partly drawn)
satisfied

Next up: CC1(C)OB(/C=C\CC(OC(=O)c2ccncc2)c2ccccc2)OC1(C)C (stereo not drawn)
not satisfied

###

# ASSAY_TARGET: Dickkopf-related protein 1 (Homo sapiens) (UniProt O94907)
# Sequence (O94907 whole entry, looked up): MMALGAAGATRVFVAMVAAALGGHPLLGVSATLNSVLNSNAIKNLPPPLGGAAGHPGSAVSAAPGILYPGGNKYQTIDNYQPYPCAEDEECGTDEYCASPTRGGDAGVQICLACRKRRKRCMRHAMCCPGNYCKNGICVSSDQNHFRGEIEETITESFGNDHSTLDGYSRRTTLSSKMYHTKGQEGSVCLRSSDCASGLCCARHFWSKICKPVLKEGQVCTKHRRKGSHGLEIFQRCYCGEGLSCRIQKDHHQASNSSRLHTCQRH
# EXPERIMENTAL_DETAILS: DKK1 binders on small-molecule microarrays, primary screen, biochemical, small-molecule microarray, 635 nm fluorescence scan (AID 1106);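 further: score merges emission near 667 nm with signal to noise over three replicate slides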
# CONDITION_CONTEXT: DKK1 binding, higher = more signal
Please mark Criterion met if the recorded composite z-score is equal to or greater than -0.2, and Criterion not met if it falls below.

Check out these entries, answers already filled in.
COMPOUND: COCCOC(=O)N1C(=O)[C@@]2(c3cc(C#CC4=CCCCC4)ccc31)[C@H](c1ccc(O)cc1)N1[C@H](c3ccccc3)[C@H](c3ccccc3)OC(=O)[C@H]1[C@@H]2C(=O)N1CCc2cc(OC)c(OC)cc2C1
ASSAY_TARGET: Dickkopf-related protein 1 (Homo sapiens) (UniProt O94907)
LABEL_VALUE: Criterion met
--
COMPOUND: CCCC1(C(=O)OC)C=C2C(=C(C(C)C)C(=O)C2C)CN1 (stereo unspecified)
ASSAY_TARGET: Dickkopf-related protein 1 (Homo sapiens) (UniProt O94907)
LABEL_VALUE: Criterion not met
--
COMPOUND: COCCOC(=O)N1C(=O)[C@@]2(c3ccccc31)[C@H](C(=O)Nc1nc3ccccc3s1)[C@H]1C(=O)O[C@H](c3ccccc3)[C@H](c3ccccc3)N1[C@@H]2c1ccccc1OCCO
ASSAY_TARGET: Dickkopf-related protein 1 (Homo sapiens) (UniProt O94907)
LABEL_VALUE: Criterion met
--
COMPOUND: COC(=O)[C@@]1(Cc2ccc(F)cc2)[C@H]2c3cc(C(=O)N4CCCC4)n(C[C@H](O)CO)c3C[C@H]2CN1C(=O)c1ccccc1
ASSAY_TARGET: Dickkopf-related protein 1 (Homo sapiens) (UniProt O94907)
LABEL_VALUE: Criterion met

Would you kindly look at the next entry?
Check the entry O=C1O[C@@H](c2ccccc2)[C@@H](c2ccccc2)N2[C@@H](c3ccc(OCCO)cc3)[C@]3(C(=O)Nc4ccc(C#CC5=CCCCC5)cc43)[C@@H](C(=O)Nc3nc4ccccc4s3)[C@H]12 : does composite z-score equal or exceed -0.2?
Criterion met

The origin of these recorded values is PubChem BioAssay.
